# Method Description: Mouse pharmacokinetic study
# Format: in vivo
# Test Context: female, Balb/c, mouse, plasma, iv, 2 mg/kg
Readout Type: clearance (mL/min/kg)

[
  {
    "Compound": "c1ccc(-c2nc(N3CCC(c4ccccn4)C3)c3ccccc3n2)nc1 (stereo not shown)",
    "Readout Type": "clearance",
    "Measurement Units": "mL/min/kg",
    "Result Value": 4.9
  }
]
